Source listed as patent US20090270394A1.

study-target: Human Cav2.2 channels (Homo sapiens)
Construct: expressed in transfected cells
Sequence (Q00975 whole entry): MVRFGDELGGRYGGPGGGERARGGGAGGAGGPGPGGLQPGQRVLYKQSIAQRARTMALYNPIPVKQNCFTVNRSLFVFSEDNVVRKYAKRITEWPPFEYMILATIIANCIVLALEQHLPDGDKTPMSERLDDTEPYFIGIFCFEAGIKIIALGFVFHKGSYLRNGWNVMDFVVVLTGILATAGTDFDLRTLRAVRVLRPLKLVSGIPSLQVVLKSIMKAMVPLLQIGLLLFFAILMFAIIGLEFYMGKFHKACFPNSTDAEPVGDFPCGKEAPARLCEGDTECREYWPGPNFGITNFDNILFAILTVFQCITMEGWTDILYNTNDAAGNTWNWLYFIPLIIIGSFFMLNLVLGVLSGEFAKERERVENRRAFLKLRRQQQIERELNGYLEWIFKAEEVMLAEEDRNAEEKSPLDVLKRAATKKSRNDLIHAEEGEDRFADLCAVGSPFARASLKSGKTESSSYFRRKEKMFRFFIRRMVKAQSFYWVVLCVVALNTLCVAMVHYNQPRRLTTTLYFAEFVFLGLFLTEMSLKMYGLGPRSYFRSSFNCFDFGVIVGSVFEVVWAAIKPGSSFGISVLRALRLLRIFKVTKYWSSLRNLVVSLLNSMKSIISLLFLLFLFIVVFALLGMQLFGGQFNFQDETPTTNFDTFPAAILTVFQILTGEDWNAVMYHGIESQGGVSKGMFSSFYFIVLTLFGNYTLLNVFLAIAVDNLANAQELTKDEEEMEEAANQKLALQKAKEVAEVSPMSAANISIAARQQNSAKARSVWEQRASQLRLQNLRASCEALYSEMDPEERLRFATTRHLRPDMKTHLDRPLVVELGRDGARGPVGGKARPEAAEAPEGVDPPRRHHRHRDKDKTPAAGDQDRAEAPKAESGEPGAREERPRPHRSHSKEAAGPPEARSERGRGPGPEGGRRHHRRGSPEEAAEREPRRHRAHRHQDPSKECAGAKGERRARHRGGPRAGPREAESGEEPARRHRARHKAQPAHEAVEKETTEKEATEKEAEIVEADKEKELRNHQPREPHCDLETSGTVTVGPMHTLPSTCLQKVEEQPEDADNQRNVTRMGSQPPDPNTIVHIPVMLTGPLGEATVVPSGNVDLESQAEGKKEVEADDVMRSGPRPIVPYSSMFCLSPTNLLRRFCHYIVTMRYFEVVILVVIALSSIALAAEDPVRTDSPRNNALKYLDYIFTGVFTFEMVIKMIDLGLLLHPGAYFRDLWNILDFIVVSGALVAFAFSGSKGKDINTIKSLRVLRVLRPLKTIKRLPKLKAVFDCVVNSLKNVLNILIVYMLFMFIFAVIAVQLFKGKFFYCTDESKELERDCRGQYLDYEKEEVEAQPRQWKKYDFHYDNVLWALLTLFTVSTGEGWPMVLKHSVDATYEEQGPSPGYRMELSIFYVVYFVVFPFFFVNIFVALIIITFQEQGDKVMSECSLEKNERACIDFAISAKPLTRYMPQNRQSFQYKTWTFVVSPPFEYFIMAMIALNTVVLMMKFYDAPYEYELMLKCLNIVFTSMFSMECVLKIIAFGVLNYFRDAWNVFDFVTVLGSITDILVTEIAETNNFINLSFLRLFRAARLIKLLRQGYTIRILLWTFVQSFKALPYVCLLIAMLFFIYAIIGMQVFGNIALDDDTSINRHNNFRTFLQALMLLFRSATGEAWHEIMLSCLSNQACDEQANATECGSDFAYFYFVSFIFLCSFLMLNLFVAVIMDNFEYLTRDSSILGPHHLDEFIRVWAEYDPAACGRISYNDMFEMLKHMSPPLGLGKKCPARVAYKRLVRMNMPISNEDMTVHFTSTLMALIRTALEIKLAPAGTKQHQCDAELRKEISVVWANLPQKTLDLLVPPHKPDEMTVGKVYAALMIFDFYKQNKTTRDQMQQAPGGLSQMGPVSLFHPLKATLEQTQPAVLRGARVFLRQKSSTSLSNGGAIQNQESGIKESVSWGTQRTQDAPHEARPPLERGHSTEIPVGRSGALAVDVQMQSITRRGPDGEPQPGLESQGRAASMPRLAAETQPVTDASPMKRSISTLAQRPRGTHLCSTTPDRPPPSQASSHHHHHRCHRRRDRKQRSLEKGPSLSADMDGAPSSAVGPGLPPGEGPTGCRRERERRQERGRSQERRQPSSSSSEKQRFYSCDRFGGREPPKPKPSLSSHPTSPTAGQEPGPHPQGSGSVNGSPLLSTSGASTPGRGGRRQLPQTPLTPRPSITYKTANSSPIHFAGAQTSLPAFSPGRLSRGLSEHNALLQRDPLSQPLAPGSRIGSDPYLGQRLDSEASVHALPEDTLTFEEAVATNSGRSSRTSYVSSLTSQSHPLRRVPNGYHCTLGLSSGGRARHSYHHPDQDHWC
Sequence (P54289 25-1103 partner): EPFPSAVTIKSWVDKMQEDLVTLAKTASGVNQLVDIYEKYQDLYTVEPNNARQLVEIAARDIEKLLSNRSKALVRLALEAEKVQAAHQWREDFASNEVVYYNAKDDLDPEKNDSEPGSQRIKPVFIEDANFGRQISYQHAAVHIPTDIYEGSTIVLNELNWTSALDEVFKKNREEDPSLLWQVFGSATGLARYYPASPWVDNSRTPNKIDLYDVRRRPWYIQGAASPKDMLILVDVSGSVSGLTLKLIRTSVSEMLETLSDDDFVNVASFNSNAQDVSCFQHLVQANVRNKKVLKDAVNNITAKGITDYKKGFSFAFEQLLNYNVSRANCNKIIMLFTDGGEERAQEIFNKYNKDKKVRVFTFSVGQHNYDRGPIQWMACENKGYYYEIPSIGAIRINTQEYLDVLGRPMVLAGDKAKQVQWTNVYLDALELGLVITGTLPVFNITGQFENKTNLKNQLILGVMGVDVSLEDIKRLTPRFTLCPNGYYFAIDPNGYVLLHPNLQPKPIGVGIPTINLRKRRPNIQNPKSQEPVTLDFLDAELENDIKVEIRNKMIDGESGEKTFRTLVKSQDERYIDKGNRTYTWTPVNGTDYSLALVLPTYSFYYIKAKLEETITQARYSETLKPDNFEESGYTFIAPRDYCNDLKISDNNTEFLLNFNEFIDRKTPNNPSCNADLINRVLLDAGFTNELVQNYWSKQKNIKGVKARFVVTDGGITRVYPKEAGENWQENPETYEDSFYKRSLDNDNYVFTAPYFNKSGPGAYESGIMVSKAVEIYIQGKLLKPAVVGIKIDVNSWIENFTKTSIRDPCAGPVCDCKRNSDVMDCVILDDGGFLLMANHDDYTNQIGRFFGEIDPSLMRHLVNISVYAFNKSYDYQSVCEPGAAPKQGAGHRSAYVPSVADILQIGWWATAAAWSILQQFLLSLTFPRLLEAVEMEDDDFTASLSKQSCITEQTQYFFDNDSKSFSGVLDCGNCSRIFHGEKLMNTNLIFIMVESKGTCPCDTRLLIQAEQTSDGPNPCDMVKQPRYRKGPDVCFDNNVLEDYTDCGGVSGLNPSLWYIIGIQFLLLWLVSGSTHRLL
Sequence (P54284 whole entry partner): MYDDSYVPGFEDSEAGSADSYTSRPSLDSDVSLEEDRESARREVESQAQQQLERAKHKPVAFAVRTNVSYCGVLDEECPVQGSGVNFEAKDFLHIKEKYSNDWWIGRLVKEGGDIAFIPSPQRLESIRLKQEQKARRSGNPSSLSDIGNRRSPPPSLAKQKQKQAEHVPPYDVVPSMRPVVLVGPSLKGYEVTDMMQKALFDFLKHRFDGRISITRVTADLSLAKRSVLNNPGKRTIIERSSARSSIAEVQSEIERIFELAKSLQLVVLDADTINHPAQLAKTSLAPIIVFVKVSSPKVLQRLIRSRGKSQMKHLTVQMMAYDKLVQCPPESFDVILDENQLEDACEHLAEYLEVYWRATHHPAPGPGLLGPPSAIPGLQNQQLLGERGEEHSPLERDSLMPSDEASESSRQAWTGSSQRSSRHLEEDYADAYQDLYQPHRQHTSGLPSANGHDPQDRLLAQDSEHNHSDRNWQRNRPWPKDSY
test-summary: Fluorescent assay for Cav2.2 channels using potassium depolarization to initiate channel opening
Format: cell-based
test-settings: 30 μM compound; read-out: Cav 2.2 Activity % Inh at 30 μM
inhibition at 30 µM: recorded values

COc1ccc(CNC(=O)C2(NC(=O)c3cc(C(C)(C)C)cc(C(C)(C)C)c3)CCCCC2)cc1    99.5%
CC(C)(C)c1cc(C(=O)NC2(C(=O)N3CCCC3)CCCC2)cc(C(C)(C)C)n1    92.2%
CC(C)(C)c1cc(C(=O)NC2(C(=O)NCc3ccccc3)CCCCC2)cc(C(C)(C)C#N)c1    96.3%
Cc1cc(CNC(=O)C2(NC(=O)c3cc(C(C)(C)C)nc(C(C)(C)C)c3)CCCCC2)no1    101%
CC(C)(C)c1cc(C(=O)NC2(C(=O)NCc3ccccc3)CCCC2)cc(C(C)(C)C)n1    101%
CC(C)(C)c1cc(C(=O)NC2(C(=O)NCc3ccccc3)CCCCC2)cc(C(C)(C)C)c1    97.3%
COc1c(C(C)(C)C)cc(CNC(=O)C2(NC(=O)c3cccc(C(F)(F)F)c3)CCCCC2)cc1C(C)(C)C    97.7%
CC(C)(C)c1cc(C(=O)NC2(C(=O)NCc3ccc(F)cc3)CCCCC2)cc(C(C)(C)C)c1    91.6%
CC(C)(C)c1cc(NC(=O)C2(NCc3ccccc3)CCCCC2)cc(C(C)(C)C)c1    82.5%
COc1ccc(CNC(=O)C2(NC(=O)c3cc(C(C)(C)C)cc(C(C)(C)C)c3)CCCC2)cc1    95.8%

Task item: Sample CC(C)(C)c1cc(C(=O)NC2(C(=O)NCc3ccc(S(C)(=O)=O)cc3)CCCCC2)cc(C(C)(C)C)c1O — what was its inhibition at 30 µM?
Reply: 102%

Task item: Sample CC(C)(C)c1cc(C(=O)NC2(C(=O)NCc3cccc(C(F)(F)F)c3)Cc3ccccc3C2)cc(C(C)(C)C)n1 — what was its inhibition at 30 µM?
Reply: 68.4%

Task item: Sample CC(C)(C)c1cc(C(=O)NC2(C(=O)NCc3ccccc3)CCCCC2)cc(C(C)(C)C)c1O — what was its inhibition at 30 µM?
Reply: 107%
